Attribution: patent US20190367516A1

Target Of Assay: human M2 receptor (Homo sapiens, UniProt P08172)
Sequence (P08172 1-466): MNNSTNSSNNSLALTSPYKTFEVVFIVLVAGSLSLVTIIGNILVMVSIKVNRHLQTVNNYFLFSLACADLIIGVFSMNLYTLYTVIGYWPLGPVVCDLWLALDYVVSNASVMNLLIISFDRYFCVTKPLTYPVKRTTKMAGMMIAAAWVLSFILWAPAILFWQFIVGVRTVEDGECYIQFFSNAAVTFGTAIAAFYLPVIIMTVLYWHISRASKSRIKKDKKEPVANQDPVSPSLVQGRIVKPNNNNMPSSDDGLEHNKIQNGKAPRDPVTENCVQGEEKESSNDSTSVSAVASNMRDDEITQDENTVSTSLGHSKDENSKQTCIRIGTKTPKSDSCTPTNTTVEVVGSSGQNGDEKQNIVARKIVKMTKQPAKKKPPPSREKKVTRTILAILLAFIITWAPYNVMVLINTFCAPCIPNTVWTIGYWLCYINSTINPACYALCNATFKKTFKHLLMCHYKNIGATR
Conditions: Receptor activity EC50, M2-GIRK1/4 activation test, acetylcholine at EC20; allosteric potency; in some cases mean values from two or more determinations
EC50 reference
# unit: nM | format: bare number

>  <Compound>
CN(C)c1ccc2c(=O)c(C(=O)NC3(C(F)(F)F)CCCC3)cn(-c3ccc(F)cc3F)c2n1 [Example 151]

>  <Uom>
nM

>  <EC50>
23

$$$$

Please turn your attention to the following entry.
Please give the measured EC50 for this compound: CC[C@H](NC(=O)c1cn(-c2ccc(F)cc2F)c2nc(N(C)CCF)ccc2c1=O)C(F)(F)F [Example 103]
50

====

Target Of Assay: human M2 receptor (Homo sapiens, UniProt P08172)
Assay type: cell-based
Conditions: shift in the acetylcholine dose-response curve (Allosteric EC50 shift, GraphPad PRISM); α >1 = positive cooperativity
Items are presented alongside their recorded Cooperativity (alpha factor).
Give a plain numeric answer without units written out.

Request the reported Cooperativity (alpha factor) associated with O=C(NC12CC(C1)C2)c1cn(-c2c(F)cc(F)cc2F)c2nc(N3C[C@@H](O)[C@H](O)C3)ccc2c1=O [Example 366]
36

Same question, CC[C@@H](NC(=O)c1cn(-c2c(F)cccc2F)c2nc(N3CCC(C)(O)C3)ccc2c1=O)C(F)(F)F (mixture of isomers) [Example 276] this time
28

One more compound: CN(C)c1ccc2c(=O)c(C(=O)NC(c3c(Cl)cccc3Cl)C(F)(F)F)cn(-c3ccc(F)cc3F)c2n1 (racemic) [Example 56]
15

Repeat for the following compound: O=C(N[C@H](c1ccccc1Cl)C(F)(F)F)c1cn(-c2ccc(F)cc2F)c2nc(N3CCCC(O)C3=O)ccc2c1=O (single isomer, unassigned) [Example 207]
18

Note, next up: O=C(Nc1c(Cl)cccc1Cl)c1cn(-c2ccc(F)cc2F)c2nc(N3CC[C@H](O)C3=O)ccc2c1=O [Example 202]
18

Please give the result for O=C(NC12CC3CC(CC(C3)C1)C2)c1cn(-c2ccc(F)cc2F)c2nc(N3CCCC[C@H]3CO)ccc2c1=O [Example 15] too.
8

// same read-out, input: CC[C@@H](NC(=O)c1cn(-c2ccc(F)cc2F)c2nc(N3CCC(O)C3=O)ccc2c1=O)C(F)(F)F (mixture of isomers) [Example 224]
31

Field entry: CC[C@@H](NC(=O)c1cn(-c2ccc(F)cc2F)c2nc(NCCF)ccc2c1=O)C(F)(F)F [Example 27]
20

Now give it for CC[C@H](NC(=O)c1cn(-c2ccc(F)cc2F)c2nc(N3CC=CC3=O)ccc2c1=O)C(F)(F)F [Example 286] too.
3

Now the compound CC12CCC(NC(=O)c3cn(-c4ccc(F)cc4F)c4nc(N5CC(O)CC5=O)ccc4c3=O)(CC1)CC2 (stereo not shown) [Example 181]
36

Please give the result for CC[C@H](NC(=O)c1cn(-c2c(F)cc(F)cc2Cl)c2nc(N3CCNC3=O)ccc2c1=O)C(F)(F)F [Example 340] too.
22

Next compound: CC[C@H](NC(=O)c1cn(-c2c(F)cc(F)cc2F)c2nc(N3CCN/C3=N\C(=O)OC)ccc2c1=O)C(F)(F)F [Example 377]
34

// repeat for O=C(NC(C1CC1)C(F)(F)F)c1cn(-c2ccccc2Cl)c2nc(N3C[C@@H](O)CC3=O)ccc2c1=O (mixture of isomers) [Example 279] and report
34

Param item: CC[C@@H](NC(=O)c1cn(-c2ccc(F)cc2F)c2nc(N3CC4C(C3)C4(F)F)ccc2c1=O)C(F)(F)F (stereo partly shown) [Example 28]
25

====

Target Of Assay: human M2 receptor (Homo sapiens)
Conditions: Receptor activity EC50, M2-GIRK1/4 activation test, acetylcholine at EC20; allosteric potency; in some cases mean values from two or more determinations
Please use Y for EC50 under 70 nM and N for everything else, ties included.

Examples from the recorded data:
>  <Compound>
O=C(N[C@@H](C1CC1)C(F)(F)F)c1cn(-c2c(F)cc(F)cc2Cl)c2nc(N3C[C@@H](O)CC3=O)ccc2c1=O

>  <Assigned Label>
Y

$$$$
>  <Compound>
C[C@H](NC(=O)c1cn(-c2c(F)cccc2F)c2nc(N3C[C@@H](O)CC3=O)ccc2c1=O)C(F)(F)F

>  <Assigned Label>
N

$$$$

# strict comparison: is reported EC50 < 70 nM? input = O=C(N[C@H](c1ccccc1Cl)C(F)(F)F)c1cn(-c2ccc(F)cc2F)c2nc(N3CCCC(O)C3=O)ccc2c1=O (single isomer, unassigned) [Example 210]
N

Lookup CC[C@@H](NC(=O)c1cn(-c2ccc(F)cc2F)c2nc(N3CCC(C)(OC)C3=O)ccc2c1=O)C(F)(F)F (single isomer, unassigned) [Example 198]
N

Next record, please: CC(COC(F)(F)F)NC(=O)c1cn(-c2ccc(F)cc2F)c2nc(N3CC[C@H](F)C3)ccc2c1=O (mixture of isomers) [Example 227]
N

====

Target Of Assay: human M2 receptor (Homo sapiens, UniProt P08172)
Sequence (P08172 1-466): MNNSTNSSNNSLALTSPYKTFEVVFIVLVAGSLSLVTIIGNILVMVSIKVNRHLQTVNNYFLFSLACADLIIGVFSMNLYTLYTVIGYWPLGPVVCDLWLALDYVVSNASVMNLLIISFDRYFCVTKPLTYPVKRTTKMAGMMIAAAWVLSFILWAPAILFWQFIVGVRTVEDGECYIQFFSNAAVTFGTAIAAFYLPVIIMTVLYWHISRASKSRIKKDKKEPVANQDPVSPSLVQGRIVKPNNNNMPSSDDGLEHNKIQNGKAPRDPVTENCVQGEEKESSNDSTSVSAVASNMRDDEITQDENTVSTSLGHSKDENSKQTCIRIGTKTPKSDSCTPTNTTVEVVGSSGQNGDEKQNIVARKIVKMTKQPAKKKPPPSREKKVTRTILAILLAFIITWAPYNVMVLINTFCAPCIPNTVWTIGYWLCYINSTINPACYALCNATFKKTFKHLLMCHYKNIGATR
Conditions: Receptor activity EC50, M2-GIRK1/4 activation test, acetylcholine at EC20; allosteric potency; in some cases mean values from two or more determinations
Each entry below carries its reported EC50.
Answer with a number only, understood to be in nM.

The examples below pair each entry with its known result.
>  <Compound>
CC[C@@H](NC(=O)c1cn(-c2ccc(F)cc2F)c2nc(N3CCC4CC4(O)C3)ccc2c1=O)C(F)(F)F (stereo partly drawn)

>  <EC50 / nM>
38

$$$$
>  <Compound>
CN(C)c1ccc2c(=O)c(C(=O)NCc3ccc(F)cc3F)cn(-c3ccc(F)cc3F)c2n1

>  <EC50 / nM>
158

$$$$

So what's the measured EC50 for this one? O=C(NC12CC3CC(CC(F)(C3)C1)C2)c1cn(-c2ccc(F)cc2F)c2nc(N3CC[C@H](F)C3)ccc2c1=O
17

====

Each item that follows carries a reported pEC50.
Target Of Assay: human M2 receptor (Homo sapiens)
Conditions: Receptor activity EC50, M2-GIRK1/4 activation test, acetylcholine at EC20; allosteric potency; in some cases mean values from two or more determinations
Keep it numeric: pEC50 is minus log10 of the concentration in mol/L.

Recorded pEC50, per entry:
>  <Compound>
O=C(NCC(F)(F)F)c1cn(-c2ccc(F)cc2F)c2nc(N3CC[C@H](F)C3)ccc2c1=O

>  <Target Of Assay>
human M2 receptor (Homo sapiens)

>  <pEC50>
6.86

$$$$
>  <Compound>
CC[C@@H](NC(=O)c1cn(-c2ccccc2F)c2nc(N3C[C@@H](O)CC3=O)ccc2c1=O)C(F)(F)F

>  <Target Of Assay>
human M2 receptor (Homo sapiens)

>  <pEC50>
6.95

$$$$
>  <Compound>
O=C(NC12CC3CC(CC(C3)C1)C2)c1cn(-c2ccc(F)cc2F)c2nc(NCCO)ccc2c1=O

>  <Target Of Assay>
human M2 receptor (Homo sapiens)

>  <pEC50>
6.84

$$$$
>  <Compound>
CC(C)(NC(=O)c1cn(-c2ccc(F)cc2F)c2nc(N3CCNC3=O)ccc2c1=O)c1c(F)cccc1F

>  <Target Of Assay>
human M2 receptor (Homo sapiens)

>  <pEC50>
6.89

$$$$
>  <Compound>
CC(C)(NC(=O)c1cn(-c2ccc(F)cc2F)c2nc(N3CC[C@@H](O)C3)ccc2c1=O)c1c(F)cccc1F

>  <Target Of Assay>
human M2 receptor (Homo sapiens)

>  <pEC50>
6.84

$$$$
>  <Compound>
O=C(NC(c1c(F)cccc1F)C(F)(F)F)c1cn(-c2ccc(F)cc2F)c2nc(N3CCCC(O)C3=O)ccc2c1=O (single isomer, unassigned) [Example 250]

>  <Target Of Assay>
human M2 receptor (Homo sapiens)

>  <pEC50>
7.00

$$$$
>  <Compound>
O=C(NC12CC3CC(CC(C3)C1)C2)c1cn(-c2ccc(F)cc2F)c2nc(N3CC[S+]([O-])C3)ccc2c1=O (centres unmarked)

>  <Target Of Assay>
human M2 receptor (Homo sapiens)

>  <pEC50>
6.80

$$$$
>  <Compound>
CN(C)c1ccc2c(=O)c(C(=O)NC(c3ccccc3Cl)C(F)(F)F)cn(-c3ccc(F)cc3F)c2n1 (racemic)

>  <Target Of Assay>
human M2 receptor (Homo sapiens)

>  <pEC50>
6.96

$$$$
>  <Compound>
CCCC(NC(=O)c1cn(-c2ccc(F)cc2F)c2nc(NCCF)ccc2c1=O)C(F)(F)F (racemic)

>  <Target Of Assay>
human M2 receptor (Homo sapiens)

>  <pEC50>
6.97

$$$$
>  <Compound>
CN(CCF)c1ccc2c(=O)c(C(=O)NC34CCC(F)(CC3)CC4)cn(-c3ccc(F)cc3F)c2n1

>  <Target Of Assay>
human M2 receptor (Homo sapiens)

>  <pEC50>
7.21

$$$$

State the recorded pEC50 for this entry: O=C(NC12CC3CC(CC(C3)C1)C2)c1cn(-c2ccc(F)cc2F)c2nc(N3CCC(F)(CO)CC3)ccc2c1=O
7.05
